Target: Dual specificity tyrosine-phosphorylation-regulated kinase 1B (DYRK1B) (Homo sapiens)
Sequence (Q9Y463 whole entry): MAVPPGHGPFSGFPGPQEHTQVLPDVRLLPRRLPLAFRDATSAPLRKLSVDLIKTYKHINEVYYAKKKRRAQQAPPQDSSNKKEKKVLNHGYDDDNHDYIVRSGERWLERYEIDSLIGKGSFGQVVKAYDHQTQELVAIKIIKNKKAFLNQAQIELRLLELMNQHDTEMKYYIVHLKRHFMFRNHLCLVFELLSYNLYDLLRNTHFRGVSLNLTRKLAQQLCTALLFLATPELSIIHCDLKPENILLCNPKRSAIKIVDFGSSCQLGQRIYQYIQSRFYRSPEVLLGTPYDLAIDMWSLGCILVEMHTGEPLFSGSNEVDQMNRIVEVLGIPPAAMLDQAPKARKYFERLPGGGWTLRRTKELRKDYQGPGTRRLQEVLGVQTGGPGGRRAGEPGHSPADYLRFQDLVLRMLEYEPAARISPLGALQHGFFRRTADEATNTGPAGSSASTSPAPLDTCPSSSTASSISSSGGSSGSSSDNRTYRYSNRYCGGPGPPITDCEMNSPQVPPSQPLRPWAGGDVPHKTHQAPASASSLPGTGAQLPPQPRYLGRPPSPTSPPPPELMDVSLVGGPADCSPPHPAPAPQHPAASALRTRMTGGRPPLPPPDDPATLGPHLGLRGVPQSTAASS
value type: Kd (nM)
A number alone suffices; assume nM.

Look up and report measured Kd (Dual specificity tyrosine-phosphorylation-regulated kinase 1B (DYRK1B) (Homo sapiens)) for the following compound: COC(=O)Nc1nc2ccc(C(=O)c3ccccc3)cc2[nH]1 [MBZ, mebendazole]
7
